# PROCEDURE_TEXT: modulators of CIT2-GFP expression in yeast, confirmation, S. cerevisiae, GFP fusion, cherry picks, mother/daughter gates (AID 2274)
# ASSAY_SETUP: S. cerevisiae CIT2-GFP strain, flow cytometry, 3 h; at 10 µM
Calls of active or inactive are those of the source.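 The calls were made as follows: active = GFP response above 150% of the DMSO level; inconclusive = fewer than 70 events counted for a yeast strain; inactive = the rest.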
Outcomes you can answer with include only these: active, inactive

Solved entries (count: 2):
Exam item: Could you kindly confirm the outcome this assay logged for COc1ccccc1C1CC(c2c(-c3ccccc3)c3cc(Cl)ccc3[nH]c2=O)=NN1S(C)(=O)=O (stereo not drawn) ?
Marked response: inactive

Exam item: Could you kindly confirm the outcome this assay logged for Cc1c(/C=N/Nc2ccc(C(=O)O)cc2)c2ccccc2n1C ?
Marked response: inactive

Further cases:
Exam item: Could you kindly confirm the outcome this assay logged for COc1ccccc1N1CCN(C(=O)c2ccccc2Oc2ccccc2)CC1 ?
Marked response: inactive

Exam item: Could you kindly confirm the outcome this assay logged for CCOc1ccc(N2C(=O)CC(SCCN)C2=O)cc1 (stereo not drawn) ?
Marked response: inactive

Exam item: Could you kindly confirm the outcome this assay logged for Cc1onc(-c2c(Cl)cccc2Cl)c1NC(=O)NNc1c(Cl)cncc1Cl ?
Marked response: inactive

Exam item: Could you kindly confirm the outcome this assay logged for O/C=c1\ccc2cccc3nc(C(F)(F)F)nc1c23 ?
Marked response: active

Exam item: Could you kindly confirm the outcome this assay logged for COc1cc(/C=C/C(=O)c2c(O)cc(C)oc2=O)cc(OC)c1O ?
Marked response: inactive

Exam item: Could you kindly confirm the outcome this assay logged for CC(=O)Nc1ccc(NC(=O)c2ccccc2F)cc1 ?
Marked response: inactive

Exam item: Could you kindly confirm the outcome this assay logged for COc1ccccc1N1C(=O)CC(Sc2nccc(C)n2)C1=O (stereo not drawn) ?
Marked response: inactive

Exam item: Could you kindly confirm the outcome this assay logged for N=C1S/C(=C\c2ccco2)C(=O)N1c1nccs1 ?
Marked response: inactive

Exam item: Could you kindly confirm the outcome this assay logged for COc1ccc2c(c1)c(C(C)=O)c(C)n2-c1ccccc1OC ?
Marked response: inactive

Exam item: Could you kindly confirm the outcome this assay logged for CCCc1[nH]nc2c1C1(C(=O)N(C(C)C)c3ccccc31)C(C#N)=C(N)O2 (stereo not drawn) ?
Marked response: inactive

Exam item: Could you kindly confirm the outcome this assay logged for O=C(NCc1ccc2c(c1)OCO2)c1nc(S(=O)(=O)Cc2ccccc2F)ncc1Cl ?
Marked response: inactive

Exam item: Could you kindly confirm the outcome this assay logged for O=C(c1ccc2ccccc2c1)N1CCN(c2ccc(O)cc2)CC1 ?
Marked response: inactive

Exam item: Could you kindly confirm the outcome this assay logged for O=C(c1cccc(COc2ccc(Cl)cc2Cl)c1)N1CCN(c2ccccn2)CC1 ?
Marked response: inactive

Exam item: Could you kindly confirm the outcome this assay logged for O=C(Nc1cc(F)c(Br)cc1F)c1ccc(Cl)cc1 ?
Marked response: inactive

Exam item: Could you kindly confirm the outcome this assay logged for Cc1cc(=O)oc2cc(OC(C)C(=O)NC3CCCC3)ccc12 (stereo not drawn) ?
Marked response: inactive

Exam item: Could you kindly confirm the outcome this assay logged for COc1ccc(OC)c(C(=O)/C=C/c2ccccc2C(F)(F)F)c1 ?
Marked response: inactive

Exam item: Could you kindly confirm the outcome this assay logged for Nc1ccc(C(=O)N/N=C/c2ccccc2)cc1 ?
Marked response: inactive

Exam item: Could you kindly confirm the outcome this assay logged for CN1CCN(/N=C/c2c3ccccc3c(Cl)c3ccccc23)CC1 ?
Marked response: inactive

Exam item: Could you kindly confirm the outcome this assay logged for COc1ccc(C(=O)/C=C2/C(=O)Nc3ccccc32)cc1OC ?
Marked response: inactive
